- Test system: NCI-H1048 cells
- Experimental Protocol: MTT proliferation assay, NCI-H1048
- Assay type: cell-based
- Condition Label: 5 days compound exposure, 1:3 serial dilution starting at 10 μM
*1 amine or outer side, *2 acyl side, *3 side chain or, on linkers, in order; H or OH if unused. Where a SMILES comes first, the peptide text is derived from it. Bridges are numbered along the chain shown (N, C = ends). [ ]: non-standard residue; d: D form. The star is where a group is joined. X141 = CN([C@@H](Cc1cc(Cl)ccc1C1=CCN(S(C)(=O)=O)C1)C(=O)[*:2])[*:1]; NMehhhLys(Me) = CN([C@@H](CCCCCCCN(C)[*:3])C(=O)[*:2])[*:1]; X159 = CN([C@@H](Cc1cc(Cl)cnc1Oc1cnn(C)c1)C(=O)[*:2])[*:1]; cBuCO(3,3-F2-1-CF3) = O=C(C1(C(F)(F)F)CC(F)(F)C1)*; Pro(trans-4-F) = O=C(O)[C@@H]1C[C@@H](F)CN1; Gly(cPr) = N[C@H](C(=O)O)C1CC1
Endpoint Name: GI50 (µM)
Your answer is read as µM, so omit the unit and give the number.

Ask | GI50 for CC(C)C[C@@H]1NC(=O)[C@@H](N(C)C(=O)[C@@H](NC(=O)[C@@H]2C[C@@H](F)CN2C(=O)C2(C(F)(F)F)CC(F)(F)C2)C2CC2)CCCCCCCN(C)C(=O)[C@H](Cc2cc(Cl)cnc2Oc2cnn(C)c2)N(C)C1=O [Example 323] ({cBuCO(3,3-F2-1-CF3)}-[Pro(trans-4-F)][Gly(cPr)][NMehhhLys(Me)]L[X159]; lactam 3-C) ?
Reply | 0.01

Ask | GI50 for CC(C)C[C@@H]1NC(=O)[C@@H](N(C)C(=O)[C@@H](NC(=O)[C@@H]2C[C@@H](F)CN2C(=O)C2(C(F)(F)F)CC(F)(F)C2)C2CC2)CCCCCCCN(C)C(=O)[C@H](Cc2cc(Cl)ccc2C2=CCN(S(C)(=O)=O)C2)N(C)C1=O [Example 309] ({cBuCO(3,3-F2-1-CF3)}-[Pro(trans-4-F)][Gly(cPr)][NMehhhLys(Me)]L[X141]; lactam 3-C) ?
Reply | 0.01

----------
- Tested on: NCI-H1048 cells
- Experimental Protocol: MTT proliferation assay, NCI-H1048;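 further: Dose-response in 96-well plates over 8 or 10 concentration points, with exposure spanning 3-4 cell doublings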
- Format: cell-based
- Condition Label: 5 days compound exposure, 1:3 serial dilution starting at 10 μM
*1 amine or outer side, *2 acyl side, *3 side chain or, on linkers, in order; H or OH if unused. Where a SMILES comes first, the peptide text is derived from it. Bridges are numbered along the chain shown (N, C = ends). [ ]: non-standard residue; d: D form. The star is where a group is joined. X75 = CC(C)C(=O)N1C2C=C(c3ccc(Cl)cc3C[C@@H](C(=O)[*:2])N(C)[*:1])CC1COC2; X203 = CN([C@@H](Cc1cc(Cl)ccc1-c1cnn(C(F)F)c1)C(=O)[*:2])[*:1]; NMehhhLys(Me) = CN([C@@H](CCCCCCCN(C)[*:3])C(=O)[*:2])[*:1]; X188 = CN([C@@H](Cc1cc(Cl)ccc1-c1ccn(C)n1)C(=O)[*:2])[*:1]; X112 = CN([C@@H](Cc1cc(F)ccc1-c1cnn(C)c1)C(=O)[*:2])[*:1]; NMe(hhhLys) = CN([C@@H](CCCCCCCN[*:3])C(=O)[*:2])[*:1]; cBuCO(3,3-F2-1-CF3) = O=C(C1(C(F)(F)F)CC(F)(F)C1)*; Pro(trans-4-F) = O=C(O)[C@@H]1C[C@@H](F)CN1; Gly(cPr) = N[C@H](C(=O)O)C1CC1
Would you kindly list GI50 for each of these compounds?
Your answer is read as nM, so omit the unit and give the number.

Ask | Lab request: please report GI50 under test system NCI-H1048 cells for CCN(C(=O)[C@@H](NC(=O)[C@@H]1C[C@@H](F)CN1C(=O)C1(C(F)(F)F)CC(F)(F)C1)C1CC1)[C@H]1CCCCCCCN(C)C(=O)[C@H](Cc2cc(Cl)ccc2-c2ccc(N3CCN(C)CC3)cc2)N(C)C(=O)[C@H](CC(C)C)NC1=O [Example 388]
Reply | 20

Ask | Lab request: please report GI50 under test system NCI-H1048 cells for CC(C)C[C@@H]1NC(=O)[C@@H](N(C)C(=O)[C@@H](NC(=O)[C@@H]2C[C@@H](F)CN2C(=O)C2(C(F)(F)F)CC(F)(F)C2)C2CC2)CCCCCCCN(C)C(=O)[C@H](Cc2cc(Cl)ccc2-c2cnn(C(F)F)c2)N(C)C1=O [Example 200] ({cBuCO(3,3-F2-1-CF3)}-[Pro(trans-4-F)][Gly(cPr)][NMehhhLys(Me)]L[X203]; lactam 3-C)
Reply | 40

Ask | Lab request: please report GI50 under test system NCI-H1048 cells for CC(C)C[C@@H]1NC(=O)[C@@H](N(C)C(=O)[C@@H](NC(=O)[C@@H]2C[C@@H](F)CN2C(=O)C2(C(F)(F)F)CC(F)(F)C2)C2CC2)CCCCCCCN(C)C(=O)[C@H](Cc2cc(Cl)ccc2-c2ccn(C)n2)N(C)C1=O [Example 205] ({cBuCO(3,3-F2-1-CF3)}-[Pro(trans-4-F)][Gly(cPr)][NMehhhLys(Me)]L[X188]; lactam 3-C)
Reply | 20

Ask | Lab request: please report GI50 under test system NCI-H1048 cells for CC(C)C[C@@H]1NC(=O)[C@@H](N(C)C(=O)[C@@H](NC(=O)[C@@H]2C[C@@H](F)CN2C(=O)C2(C(F)(F)F)CC(F)(F)C2)C2CC2)CCCCCCCNC(=O)[C@H](Cc2cc(Cl)ccc2C2=CC3COCC(C2)N3C(=O)C(C)C)N(C)C1=O (stereo partly drawn) [Example 194] ({cBuCO(3,3-F2-1-CF3)}-[Pro(trans-4-F)][Gly(cPr)][NMe(hhhLys)]L[X75]; lactam 3-C)
Reply | 10

Ask | Lab request: please report GI50 under test system NCI-H1048 cells for CC(C)C[C@@H]1NC(=O)[C@@H](N(C)C(=O)[C@@H](NC(=O)[C@@H]2C[C@@H](F)CN2C(=O)C2(C(F)(F)F)CC(F)(F)C2)C2CC2)CCCCCCCN(C)C(=O)[C@H](Cc2cc(F)ccc2-c2cnn(C)c2)N(C)C1=O [Example 65] ({cBuCO(3,3-F2-1-CF3)}-[Pro(trans-4-F)][Gly(cPr)][NMehhhLys(Me)]L[X112]; lactam 3-C)
Reply | 10

Ask | Lab request: please report GI50 under test system NCI-H1048 cells for CC(C)C[C@@H]1NC(=O)[C@@H](N(C)C(=O)[C@@H](NC(=O)[C@@H]2C[C@@H](F)CN2C(=O)C2(C(F)(F)F)CCC2)C2CC2)CC=CCCCCN(C)C(=O)[C@H](Cc2cc(Cl)ccc2Cl)N(C)C1=O [Example 48]
Reply | 40
